Details: 283.15 K; 100 kPa; Liquid; Concentric cylinders viscometry
Attribute measured: log10(viscosity) (log10 of the value in mPa·s)
Hi team, quick reminder: these entries are log10 of viscosity (mPa·s).

Recorded result, CCCCn1cc[n+](C)c1.COP(=O)([O-])OC [1-butyl-3-methyl-1H-imidazolium dimethylphosphate] , log10(viscosity): 3.36

Sure, the documented log10(viscosity) for CC(=O)[O-].CCCCn1cc[n+](C)c1 [1-butyl-3-methylimidazolium acetate] is 3.01

CCCCn1cc[n+](C)c1.F[B-](F)(F)F [1-butyl-3-methylimidazolium tetrafluoroborate] has a reported log10(viscosity) of 2.42

Reported log10(viscosity) ( CCCCn1cc[n+](C)c1.N#C[S-] [1-butyl-3-methylimidazolium thiocyanate] ) = 2.14

Measured log10(viscosity), CCCCn1cc[n+](C)c1.N#CN=C=[N-] [1-butyl-3-methylimidazolium dicyanamide] : 1.77

* * *

Details: 333.15 K; 100 kPa; Liquid; Vibrating tube method
Could you please report measured mass density for the items listed next?
Write the answer as a number in kg/m3, unit excluded.

In plain terms, CC(=O)[O-].CCCCn1cc[n+](C)c1 [1-butyl-3-methylimidazolium acetate] has a documented mass density of 1031.5

The recorded mass density for entry CCCCn1cc[n+](C)c1.N#CN=C=[N-] [1-butyl-3-methylimidazolium dicyanamide] equals 1038.2

Entry CCCCn1cc[n+](C)c1.N#C[S-] [1-butyl-3-methylimidazolium thiocyanate] — recorded mass density = 1049.8

Given item CCCCn1cc[n+](C)c1.COP(=O)([O-])OC [1-butyl-3-methyl-1H-imidazolium dimethylphosphate] , the value recorded as its mass density is 1134.6

Documented mass density of CCCCn1cc[n+](C)c1.F[B-](F)(F)F [1-butyl-3-methylimidazolium tetrafluoroborate] : 1177

* * *

Exercise: state measured mass density for each of the compounds provided.
Conditions: 348.15 K; 100 kPa; Liquid; Vibrating tube method
Response body: numeric value in kg/m3, unit text excluded.

# mass density of CCCCn1cc[n+](C)c1.N#CN=C=[N-] [1-butyl-3-methylimidazolium dicyanamide] = 1029.1

mass density recorded for this compound, CCCCn1cc[n+](C)c1.F[B-](F)(F)F [1-butyl-3-methylimidazolium tetrafluoroborate] , is 1166.8

# compound CCCCn1cc[n+](C)c1.COP(=O)([O-])OC [1-butyl-3-methyl-1H-imidazolium dimethylphosphate] ; its mass density = 1125.1

Short answer for CC(=O)[O-].CCCCn1cc[n+](C)c1 [1-butyl-3-methylimidazolium acetate] : mass density was 1022.6

Please fill in: mass density reported for CCCCn1cc[n+](C)c1.N#C[S-] [1-butyl-3-methylimidazolium thiocyanate] = 1041.4

* * *

Assay: xn = mol fraction of the nth substance listed
Conditions: 283.15 K; 100 kPa; Liquid; Concentric cylinders viscometry; x2 = 0.25
± gives the expanded uncertainty stated by the source.
Attribute measured: viscosity

Entry CCCCn1cc[n+](C)c1.N#C[S-] [1-butyl-3-methylimidazolium thiocyanate] + CCCC[n+]1ccn(C)c1.O=S(=O)([N-]S(=O)(=O)C(F)(F)F)C(F)(F)F ; viscosity = 133.49 ± 7 mPa·s

Given item CC(=O)[O-].CCCCn1cc[n+](C)c1 [1-butyl-3-methylimidazolium acetate] + CCCC[n+]1ccn(C)c1.O=S(=O)([N-]S(=O)(=O)C(F)(F)F)C(F)(F)F , the value recorded as its viscosity is 577.38 ± 34 mPa·s

The molecule CCCCn1cc[n+](C)c1.F[P-](F)(F)(F)(F)F [1-butyl-3-methylimidazolium hexafluorophosphate] + CCCC[n+]1ccn(C)c1.O=S(=O)([N-]S(=O)(=O)C(F)(F)F)C(F)(F)F showed viscosity equal to 360.25 ± 20 mPa·s

In plain terms, CCCCn1cc[n+](C)c1.O=S(=O)([O-])C(F)(F)F [1-butyl-3-methylimidazolium trifluoromethanesulfonate] + CCCC[n+]1ccn(C)c1.O=S(=O)([N-]S(=O)(=O)C(F)(F)F)C(F)(F)F has a documented viscosity of 154.7 ± 8.1 mPa·s

// viscosity lookup, molecule = CCCCn1cc[n+](C)c1.COP(=O)([O-])OC [1-butyl-3-methyl-1H-imidazolium dimethylphosphate] + CCCC[n+]1ccn(C)c1.O=S(=O)([N-]S(=O)(=O)C(F)(F)F)C(F)(F)F , result: 1433.7 ± 94 mPa·s

* * *

Test: xn = mol fraction of the nth substance listed
Settings: 333.15 K; 100 kPa; Liquid; Concentric cylinders viscometry; x2 = 0.25
± gives the expanded uncertainty stated by the source.
Attribute measured: viscosity
A complete answer gives the number and then names the unit.

Consider CCCCn1cc[n+](C)c1.F[P-](F)(F)(F)(F)F [1-butyl-3-methylimidazolium hexafluorophosphate] + CCCC[n+]1ccn(C)c1.O=S(=O)([N-]S(=O)(=O)C(F)(F)F)C(F)(F)F . Its measured viscosity is 33.47 ± 1.7 mPa·s

The reported viscosity of the compound CC(=O)[O-].CCCCn1cc[n+](C)c1 [1-butyl-3-methylimidazolium acetate] + CCCC[n+]1ccn(C)c1.O=S(=O)([N-]S(=O)(=O)C(F)(F)F)C(F)(F)F was 33.14 ± 1.7 mPa·s

For this compound ( CCCCn1cc[n+](C)c1.O=S(=O)([O-])C(F)(F)F [1-butyl-3-methylimidazolium trifluoromethanesulfonate] + CCCC[n+]1ccn(C)c1.O=S(=O)([N-]S(=O)(=O)C(F)(F)F)C(F)(F)F ), measured viscosity is 20.06 ± 1 mPa·s

Record CCCCn1cc[n+](C)c1.COP(=O)([O-])OC [1-butyl-3-methyl-1H-imidazolium dimethylphosphate] + CCCC[n+]1ccn(C)c1.O=S(=O)([N-]S(=O)(=O)C(F)(F)F)C(F)(F)F , field viscosity: 62.7 ± 3.2 mPa·s

Entry CCCCn1cc[n+](C)c1.N#C[S-] [1-butyl-3-methylimidazolium thiocyanate] + CCCC[n+]1ccn(C)c1.O=S(=O)([N-]S(=O)(=O)C(F)(F)F)C(F)(F)F — recorded viscosity = 17.91 ± 0.91 mPa·s

* * *

I'd be grateful if you could share measured mass density for these entries.
Assay: xn = mol fraction of the nth substance listed
Conditions: 363.15 K; 100 kPa; Liquid; Vibrating tube method; x2 = 0.25
Lab book: enter the figure in kg/m3, no units written.

Memo: CC(=O)[O-].CCCCn1cc[n+](C)c1 [1-butyl-3-methylimidazolium acetate] + CCCC[n+]1ccn(C)c1.O=S(=O)([N-]S(=O)(=O)C(F)(F)F)C(F)(F)F , reported mass density: 1135.6

Summary for this molecule, CCCCn1cc[n+](C)c1.COP(=O)([O-])OC [1-butyl-3-methyl-1H-imidazolium dimethylphosphate] + CCCC[n+]1ccn(C)c1.O=S(=O)([N-]S(=O)(=O)C(F)(F)F)C(F)(F)F : mass density is 1192

Record CCCCn1cc[n+](C)c1.O=S(=O)([O-])C(F)(F)F [1-butyl-3-methylimidazolium trifluoromethanesulfonate] + CCCC[n+]1ccn(C)c1.O=S(=O)([N-]S(=O)(=O)C(F)(F)F)C(F)(F)F . Reported mass density: 1286.1

Entry CCCCn1cc[n+](C)c1.N#C[S-] [1-butyl-3-methylimidazolium thiocyanate] + CCCC[n+]1ccn(C)c1.O=S(=O)([N-]S(=O)(=O)C(F)(F)F)C(F)(F)F — recorded mass density = 1150.7

Recorded result, CCCCn1cc[n+](C)c1.F[P-](F)(F)(F)(F)F [1-butyl-3-methylimidazolium hexafluorophosphate] + CCCC[n+]1ccn(C)c1.O=S(=O)([N-]S(=O)(=O)C(F)(F)F)C(F)(F)F , mass density: 1334.6

* * *

Conditions: 338.15 K; 100 kPa; Liquid; Concentric cylinders viscometry
Provide the recorded viscosity for the entries that follow.
Quick note: give the figure in mPa·s, leave out the unit.

The reported viscosity of the molecule CCCCn1cc[n+](C)c1.N#CN=C=[N-] [1-butyl-3-methylimidazolium dicyanamide] was 9.251

// recorded viscosity for CCCCn1cc[n+](C)c1.F[B-](F)(F)F [1-butyl-3-methylimidazolium tetrafluoroborate] : 21.68

Looking up CCCCn1cc[n+](C)c1.N#C[S-] [1-butyl-3-methylimidazolium thiocyanate] , I found its viscosity recorded as 15.08

Reported viscosity ( CCCCn1cc[n+](C)c1.COP(=O)([O-])OC [1-butyl-3-methyl-1H-imidazolium dimethylphosphate] ) = 65.62

Data point: CC(=O)[O-].CCCCn1cc[n+](C)c1 [1-butyl-3-methylimidazolium acetate] ; viscosity = 34.38

* * *

Settings: 343.15 K; 100 kPa; Liquid; Vibrating tube method
Attribute measured: mass density (kg/m3)
Report the figure in kg/m3 without appending any unit label.

Reported mass density ( CCCCn1cc[n+](C)c1.N#CN=C=[N-] [1-butyl-3-methylimidazolium dicyanamide] ) = 1032.1

So, CC(=O)[O-].CCCCn1cc[n+](C)c1 [1-butyl-3-methylimidazolium acetate] ? Its mass density was 1025.6

For this compound ( CCCCn1cc[n+](C)c1.F[B-](F)(F)F [1-butyl-3-methylimidazolium tetrafluoroborate] ), measured mass density is 1170.2

Record CCCCn1cc[n+](C)c1.COP(=O)([O-])OC [1-butyl-3-methyl-1H-imidazolium dimethylphosphate] , field mass density: 1128.3

According to the records, this compound CCCCn1cc[n+](C)c1.N#C[S-] [1-butyl-3-methylimidazolium thiocyanate] displays mass density of 1044.1
